Hello, the source for this data is paper doi:10.1101/211250, in case you need it.

# test system: Scribble PDZ1 R762A (human, UniProt Q14160 719-829, R762A)
# Sequence (Q14160 719-829 R762A): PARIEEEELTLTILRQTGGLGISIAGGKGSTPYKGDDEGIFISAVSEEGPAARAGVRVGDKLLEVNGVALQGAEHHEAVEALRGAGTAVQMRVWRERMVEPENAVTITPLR
# test protocol: ITC
Non-standard residues stand in square brackets, D forms with d. No end group written: not given here. pS = N[C@@H](COP(=O)(O)O)C(=O)O
measure: binding result

binder	value reported
RPHTNETSL-OH [unphosphorylated MCC peptide (RPHTNETSL-coo-)]	binds
MKRLT[pS]TRL-OH (N-terminus assumed; SMILES CSCC[C@H](N)C(=O)N[C@@H](CCCCN)C(=O)N[C@@H](CCCNC(=N)N)C(=O)N[C@@H](CC(C)C)C(=O)N[C@H](C(=O)N[C@@H](COP(=O)(O)O)C(=O)N[C@H](C(=O)N[C@@H](CCCNC(=N)N)C(=O)N[C@@H](CC(C)C)C(=O)O)[C@@H](C)O)[C@@H](C)O) [p-3 phosphorylated RPS6KA2 peptide (MKRLTpSTRL-coo-)]	binds
RPHTNET[pS]L-OH (N-terminus assumed; SMILES CC(C)C[C@H](NC(=O)[C@H](COP(=O)(O)O)NC(=O)[C@@H](NC(=O)[C@H](CCC(=O)O)NC(=O)[C@H](CC(N)=O)NC(=O)[C@@H](NC(=O)[C@H](Cc1c[nH]cn1)NC(=O)[C@@H]1CCCN1C(=O)[C@@H](N)CCCNC(=N)N)[C@@H](C)O)[C@@H](C)O)C(=O)O) [p-1 phosphorylated MCC peptide (RPHTNETpSL-coo-)]	binds
MKRLTSTRL-OH [unphosphorylated RPS6KA2 peptide (MKRLTSTRL-coo-)]	binds
